target_under_test: human GPR119 (Homo sapiens, UniProt Q8TDV5)
Construct: host or cells: HEK293-CRE-beta-lactamase
Sequence (Q8TDV5 1-335): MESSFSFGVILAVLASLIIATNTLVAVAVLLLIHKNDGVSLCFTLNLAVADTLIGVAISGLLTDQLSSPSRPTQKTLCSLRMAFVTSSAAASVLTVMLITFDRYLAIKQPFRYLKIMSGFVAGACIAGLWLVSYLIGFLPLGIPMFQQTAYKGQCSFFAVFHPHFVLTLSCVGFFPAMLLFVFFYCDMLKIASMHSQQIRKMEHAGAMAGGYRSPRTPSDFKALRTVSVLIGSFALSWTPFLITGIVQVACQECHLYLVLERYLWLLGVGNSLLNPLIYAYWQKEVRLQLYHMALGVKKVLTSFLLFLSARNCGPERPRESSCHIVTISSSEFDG
protocol_details: cAMP HTRF functional assay (hGPR119 HEK-CRE beta-lactamase cells)
Assay type: cell-based
condition_set: percent of maximal activity relative to standard GPR119 agonist (WO2005121121) at 10 μM; one value per run; read-out: Intrinsic Activity* (cAMP)
endpoint: Emax (%)

Worked set:
compound | endpoint | test_value
CC1(OC(=O)N2CCC(n3ncc(COc4ccc(C(N)=O)c(F)c4)c3C#N)CC2)CC1 [Example 26] | Emax | 62
COP(=O)(OC)c1ccc(OCc2cnn(C3CCN(C(=O)OC(C)C)CC3)c2C#N)c(F)c1 [Example 7] | Emax | 80
CC1(OC(=O)N2CCC(n3ncc(COc4c(F)ccc(F)c4F)c3C#N)CC2)CC1 [Example 31] | Emax | 107
Cc1ncccc1NCc1cnn(C2CCN(C(=O)OC(C)C)CC2)c1C#N [Example 6] | Emax | 17
Cc1nc(S(C)(=O)=O)ccc1NCc1cnn(C2CCN(C(=O)OC(C)C)CC2)c1C#N [Example 37] | Emax | 56

1 = CC1(OC(=O)N2CCC(n3ncc(COc4ccc(C(N)=O)cc4)c3C#N)CC2)CC1 [Example 16]
2 = CC(C)OC(=O)N1CCC(n2ncc(C(C)Oc3ccc(S(C)(=O)=O)cc3F)c2C#N)CC1 (centres unmarked) [Example 27]
Lower value for measured Emax? Options: 1 , 2 Identify your pick by its label.
2
(2: 27%, 1: 105%)

###

target_under_test: human GPR119 (Homo sapiens)
Construct: host or cells: HEK293-CRE-beta-lactamase
Sequence (Q8TDV5 1-335): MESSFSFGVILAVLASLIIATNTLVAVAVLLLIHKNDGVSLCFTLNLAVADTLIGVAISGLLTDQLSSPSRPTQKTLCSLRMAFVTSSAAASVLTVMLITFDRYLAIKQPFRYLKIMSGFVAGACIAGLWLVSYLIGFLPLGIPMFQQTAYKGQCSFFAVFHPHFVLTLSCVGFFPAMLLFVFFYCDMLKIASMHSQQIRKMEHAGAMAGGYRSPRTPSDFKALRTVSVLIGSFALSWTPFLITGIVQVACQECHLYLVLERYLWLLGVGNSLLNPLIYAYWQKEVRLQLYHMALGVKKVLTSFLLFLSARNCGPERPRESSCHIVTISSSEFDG
protocol_details: cAMP HTRF functional assay (hGPR119 HEK-CRE beta-lactamase cells)
Format: cell-based
condition_set: percent of maximal activity relative to standard GPR119 agonist (WO2005121121) at 10 μM; one value per run; read-out: Intrinsic Activity* (cAMP)
endpoint: Emax (%)

1 = Cc1nc(-n2cncn2)ccc1OCc1cnn(C2CCN(C(=O)OC(C)C)CC2)c1C#N [Example 35]
2 = Cc1ccccc1OCc1cnn(C2CCN(C(=O)OC(C)C)CC2)c1C#N [Example 12]
Lower value for measured Emax? Options: 1 , 2 Identify your pick by its label.
2

P = CC1(OC(=O)N2CCC(n3ncc(COc4cc(F)ccc4F)c3C#N)CC2)CC1 [Example 13]
Q = CC(C)OC(=O)N1CCC(n2ncc(COc3ccc(F)cc3F)c2C#N)CC1 [Example 11]
Lower value for measured Emax? Options: P , Q Identify your pick by its label.
Q

###

target_under_test: human GPR119 (Homo sapiens, UniProt Q8TDV5)
Construct: host or cells: HEK293-CRE-beta-lactamase
Sequence (Q8TDV5 1-335): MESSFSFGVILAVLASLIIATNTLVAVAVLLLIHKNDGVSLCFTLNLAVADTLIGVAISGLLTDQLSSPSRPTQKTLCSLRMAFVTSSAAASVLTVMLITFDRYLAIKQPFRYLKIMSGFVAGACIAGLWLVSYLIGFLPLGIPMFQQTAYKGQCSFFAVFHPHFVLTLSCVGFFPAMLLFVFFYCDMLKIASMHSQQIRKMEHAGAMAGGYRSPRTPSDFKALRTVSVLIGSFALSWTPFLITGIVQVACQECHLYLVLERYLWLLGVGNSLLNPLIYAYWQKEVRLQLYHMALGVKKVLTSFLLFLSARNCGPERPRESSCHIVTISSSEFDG
protocol_details: cAMP HTRF functional assay (hGPR119 HEK-CRE beta-lactamase cells)
Format: cell-based
condition_set: percent of maximal activity relative to standard GPR119 agonist (WO2005121121) at 10 μM; one value per run
endpoint: Intrinsic Activity* (cAMP) (%)

molecule | target_under_test | test_value
CC(C)OC(=O)N1CCC(n2ncc(CNc3ccc(S(C)(=O)=O)cc3F)c2C#N)CC1 | human GPR119 (Homo sapiens, UniProt Q8TDV5) | 57
Cc1ncccc1OCc1cnn(C2CCN(C(=O)OC(C)C)CC2)c1C#N | human GPR119 (Homo sapiens, UniProt Q8TDV5) | 34

A = CC(C)OC(=O)N1CCC(n2ncc(CC(C)c3ccc(S(C)(=O)=O)cc3F)c2C#N)CC1 (stereo not shown)
B = CC(C)OC(=O)N1CCC(n2ncc(COc3ccc(-n4cnnn4)cc3)c2C#N)CC1
C = CC1(OC(=O)N2CCC(n3ncc(COc4c(F)ccc(F)c4F)c3C#N)CC2)CC1
Task for the reader: rank each entry by its Intrinsic Activity* (cAMP), from the minimum upward. Give the labels in the order requested.
A, B, C
(A: 33%, B: 60%, C: 109%)

###

target_under_test: human GPR119 (Homo sapiens, UniProt Q8TDV5)
Construct: host or cells: HEK293-CRE-beta-lactamase
protocol_details: cAMP HTRF functional assay (hGPR119 HEK-CRE beta-lactamase cells)
Type: cell-based
condition_set: percent of maximal activity relative to standard GPR119 agonist (WO2005121121) at 10 μM; one value per run; read-out: Intrinsic Activity* (cAMP)
endpoint: Emax (%)

Worked set:
compound | endpoint | test_value
CC1(OC(=O)N2CCC(n3ncc(COc4cccc(F)c4F)c3C#N)CC2)CC1 [Example 14] | Emax | 74
CC(C)OC(=O)N1CCC(n2ncc(COc3ccc(-n4cccn4)cc3)c2C#N)CC1 [Example 18] | Emax | 80
Cc1ncccc1OCc1cnn(C2CCN(C(=O)OC3(C)CC3)CC2)c1C#N [Example 30] | Emax | 68

1 = CC(C)OC(=O)N1CCC(n2ncc(COc3ccc(-c4nnn(C)n4)cc3F)c2C#N)CC1 [Example 21]
2 = CC(C)OC(=O)N1CCC(n2ncc(COc3ccc(-c4cncn4C)cc3F)c2C#N)CC1 [Example 34]
3 = CC(C)OC(=O)N1CCC(n2ncc(COc3ccc(S(=O)(=O)CCO)cc3F)c2C#N)CC1 [Example 1]
Task for the reader: rank each entry by its Emax, from the minimum upward. Give the labels in the order requested.
1, 3, 2

###

target_under_test: human GPR119 (Homo sapiens, UniProt Q8TDV5)
Construct: host or cells: HEK293-CRE-beta-lactamase
protocol_details: beta-lactamase reporter functional assay (hGPR119 HEK293-CRE beta-lactamase cells)
Type: cell-based
condition_set: **curve was extrapolated to 100% to calculate an EC50; read-out: Human B-lactamase Functional EC50
endpoint: EC50 (µM)

compound | unit_annotation | test_value
CC(C)OC(=O)N1CCC(n2ncc(COc3ccc(-c4nnnn4C)cc3F)c2C#N)CC1 | µM | 0.131

1 = CC(C)OC(=O)N1CCC(n2ncc(CC(C)c3ccc(S(C)(=O)=O)cc3F)c2C#N)CC1 (stereo not drawn)
2 = Cc1ccccc1OCc1cnn(C2CCN(C(=O)OC(C)C)CC2)c1C#N
Lower value for measured EC50? Options: 1 , 2 Identify your pick by its label.
1
(1: 3.01 µM, 2: 5.2 µM)

###

target_under_test: human GPR119 (Homo sapiens, UniProt Q8TDV5)
Construct: host or cells: HEK293-CRE-beta-lactamase
Sequence (Q8TDV5 1-335): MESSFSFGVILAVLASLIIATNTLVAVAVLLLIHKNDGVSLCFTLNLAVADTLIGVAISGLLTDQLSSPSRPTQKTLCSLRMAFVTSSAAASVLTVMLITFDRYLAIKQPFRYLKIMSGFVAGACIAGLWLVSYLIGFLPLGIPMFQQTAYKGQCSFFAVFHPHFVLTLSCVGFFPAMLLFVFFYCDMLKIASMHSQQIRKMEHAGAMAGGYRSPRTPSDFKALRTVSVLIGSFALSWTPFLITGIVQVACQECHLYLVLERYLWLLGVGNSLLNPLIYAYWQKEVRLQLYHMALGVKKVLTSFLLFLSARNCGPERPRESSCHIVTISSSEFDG
protocol_details: beta-lactamase reporter functional assay (hGPR119 HEK293-CRE beta-lactamase cells)
Type: cell-based
condition_set: percent of maximal activity relative to standard GPR119 agonist (WO2005121121) at 10 microM; one value per run
endpoint: Intrinsic Activity* (B-lactamase) (%)

compound | unit_annotation | test_value
CC(C)OC(=O)N1CCC(n2ncc(COc3ccc(-c4nnn(C)n4)cc3F)c2C#N)CC1 [Example 21] | % | 96
Cc1nc(-n2cncn2)ccc1OCc1cnn(C2CCN(C(=O)OC(C)C)CC2)c1C#N [Example 35] | % | 101
CC(C)OC(=O)N1CCC(n2ncc(COc3ccc(S(=O)(=O)CCO)cc3F)c2C#N)CC1 [Example 1] | % | 101
CC(C)OC(=O)N1CCC(n2ncc(COc3ccc(-n4cnnn4)cc3)c2C#N)CC1 [Example 4] | % | 95
CC(C)OC(=O)N1CCC(n2ncc(CCc3ccc(S(C)(=O)=O)cc3F)c2C#N)CC1 [Example 9] | % | 93
Cc1nc(S(C)(=O)=O)ccc1NCc1cnn(C2CCN(C(=O)OC(C)C)CC2)c1C#N [Example 37] | % | 105
CC(C)OC(=O)N1CCC(n2ncc(CNc3ccc(S(C)(=O)=O)cc3F)c2C#N)CC1 [Example 10] | % | 94
CC(C)OC(=O)N1CCC(n2ncc(C(C)Oc3ccc(S(C)(=O)=O)cc3F)c2C#N)CC1 (centres unmarked) [Example 27] | % | 100
